Recorded logP values for a group of molecules are listed next.
assay: Partition coefficient, log P of the compound; assay type: physicochemical; settings: octanol/water

molecule: C=CCc1cc(C(C)(C)c2ccc(O)c(CC=C)c2)ccc1O
logP: 5.8
--
molecule: C/C=C/c1ccc(O)c(-c2cc(/C=C/C)ccc2O)c1
logP: 5.36
--
molecule: CCCc1cc(C)c(O)c(-c2cc(C)c(O)c(CCC)c2)c1
logP: 6.51
--
molecule: C=CCc1cc(/C=C2\SC(=O)NC2=O)c(O)c(-c2ccc(O)c(CC=C)c2)c1
logP: 4.48
--
molecule: COc1ccc(-c2cc(/C=C/C=O)ccc2O)cc1/C=C/C=O
logP: 4.34
--
molecule: C=CCc1cc(C=O)c(OCC)c(-c2ccc(OCC)c(CC=C)c2)c1
logP: 5.82
--
molecule: C=CCc1cc(-c2cccc(CC=C)c2O)ccc1O
logP: 4.98
--
molecule: C=CCc1ccc(O)c(-c2ccc(O)c(CC(CO)OC)c2)c1 (stereo not drawn)
logP: 3.7

The reported measurements were obtained from ChEMBL document CHEMBL4346736.
